system: IDE (Homo sapiens, UniProt P14735)
Construct: made in house; host or cells: bacteria
protocol_summary: biochemical
conditions: substrate recombinant human insulin 50 nM; Ki from IC50 with the Cheng-Prusoff equation
pKi: −log10 of the molar value. Ends that are not written are not given here.
The following substances are listed with their measured pKi values.

Look over these answered cases.
# substance, system, pKi
rows = [
    ("VHWDFRQWWQPS-NH2 [P12-1A]", "IDE (Homo sapiens, UniProt P14735)", 5.89),
    ("QSLPWCYP-NH2 [P12-3B]", "IDE (Homo sapiens, UniProt P14735)", "< 5.00"),
    ("Ac-MPSRPHSS [P12-2C]", "IDE (Homo sapiens, UniProt P14735)", "< 5.00"),
]

pKi recorded for this substance, Ac-SGKFFQRF [P12-4C] , is ≤ 5.00

---

system: IDE (Homo sapiens, UniProt P14735)
Construct: made in house; host or cells: bacteria
Sequence (P14735 1-1019): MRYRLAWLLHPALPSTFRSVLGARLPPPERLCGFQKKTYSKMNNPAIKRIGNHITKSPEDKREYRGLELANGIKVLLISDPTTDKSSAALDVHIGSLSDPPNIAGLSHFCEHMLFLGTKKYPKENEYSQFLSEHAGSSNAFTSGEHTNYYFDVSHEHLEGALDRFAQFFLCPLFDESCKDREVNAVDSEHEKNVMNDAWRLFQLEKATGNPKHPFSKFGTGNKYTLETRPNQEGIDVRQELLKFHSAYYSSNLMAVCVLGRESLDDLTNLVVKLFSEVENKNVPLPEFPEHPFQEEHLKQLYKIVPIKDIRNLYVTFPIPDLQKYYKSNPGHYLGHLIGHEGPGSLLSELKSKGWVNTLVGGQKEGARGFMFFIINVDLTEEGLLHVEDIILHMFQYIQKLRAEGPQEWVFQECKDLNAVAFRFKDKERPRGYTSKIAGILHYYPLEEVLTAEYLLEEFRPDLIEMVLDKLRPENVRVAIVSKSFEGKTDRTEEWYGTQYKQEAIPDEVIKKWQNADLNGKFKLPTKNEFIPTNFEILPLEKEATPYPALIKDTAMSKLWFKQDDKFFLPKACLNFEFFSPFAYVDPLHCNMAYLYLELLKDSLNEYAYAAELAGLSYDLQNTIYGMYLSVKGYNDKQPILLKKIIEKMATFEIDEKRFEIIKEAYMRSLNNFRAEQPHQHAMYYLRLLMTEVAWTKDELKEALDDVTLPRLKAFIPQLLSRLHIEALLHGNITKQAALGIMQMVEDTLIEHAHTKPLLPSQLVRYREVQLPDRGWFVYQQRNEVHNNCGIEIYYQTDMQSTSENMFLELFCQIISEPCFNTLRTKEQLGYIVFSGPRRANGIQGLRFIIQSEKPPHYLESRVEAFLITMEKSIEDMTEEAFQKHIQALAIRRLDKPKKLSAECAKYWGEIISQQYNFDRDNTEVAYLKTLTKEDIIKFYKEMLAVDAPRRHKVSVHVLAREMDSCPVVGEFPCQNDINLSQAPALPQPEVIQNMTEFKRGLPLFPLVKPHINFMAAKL
protocol_summary: biochemical
conditions: initial test at 500 uM
Bridge positions count the residues as written; N and C are the ends. Peptide text beside a SMILES is read from it.
measurement_type: IC50 <500 uM?

# compound, measurement_type, reported_measurement
data = [
    ("CC[C@H](C)[C@@H]1NC(=O)[C@H](CO)NC(=O)[C@H](Cc2c[nH]c3ccccc23)NC(=O)[C@H](Cc2c[nH]c3ccccc23)NC(=O)[C@H](CO)NC(=O)[C@@H](NC(=O)[C@H](C)N)CSSC[C@@H](C(=O)NCC(=O)NCC(=O)NCC(=O)O)NC(=O)[C@H](CC(C)C)NC(=O)[C@H](Cc2c[nH]cn2)NC1=O [C7C-1B] (H-ACSWWSIHLCGGG-OH; disulfide 2-10 (inferred))", "IC50 <500 uM?", "YES"),
    ("CC(C)C[C@H](NC(=O)[C@H](CO)NC(=O)[C@@H](N)CCC(N)=O)C(=O)N1CCC[C@H]1C(=O)N[C@@H](Cc1c[nH]c2ccccc12)C(=O)N[C@H]1CSSC[C@@H](C(=O)N[C@H](C(=O)N[C@H](C(N)=O)[C@@H](C)O)C(C)C)NC(=O)[C@H](Cc2c[nH]cn2)NC(=O)[C@@H]2CCCN2C(=O)[C@H](Cc2ccc(O)cc2)NC1=O [P12-3A] (H-QSLPWCYPHCVT-NH2; disulfide 6-10 (inferred))", "IC50 <500 uM?", "YES"),
    ("CC[C@H](C)[C@@H]1NC(=O)[C@H](CO)NC(=O)[C@H](Cc2c[nH]c3ccccc23)NC(=O)[C@H](Cc2c[nH]c3ccccc23)NC(=O)[C@H](CO)NC(=O)[C@@H](NC(=O)[C@H](C)N)CSSC[C@@H](C(=O)NCC(N)=O)NC(=O)[C@H](CC(C)C)NC(=O)[C@H](Cc2c[nH]cn2)NC1=O [C7C-1A] (H-ACSWWSIHLCG-NH2; disulfide 2-10 (inferred))", "IC50 <500 uM?", "YES"),
]

---

system: IDE (Homo sapiens)
Construct: made in house; host or cells: bacteria
protocol_summary: biochemical
conditions: judged as IC50 <100 uM?; N 4; read-out: Percent activity at 500 uM, Mean
Bridge positions count the residues as written; N and C are the ends. Peptide text beside a SMILES is read from it.
measurement_type: remaining activity at 500 µM (%)
Respond with the bare value in %.

# compound, measurement_type, reported_measurement
measured = [
    ("CC(C)C[C@H](NC(=O)[C@H](CO)NC(=O)[C@@H](N)CCC(N)=O)C(=O)N1CCC[C@H]1C(=O)N[C@@H](Cc1c[nH]c2ccccc12)C(=O)N[C@H]1CSSC[C@@H](C(=O)N[C@H](C(=O)N[C@H](C(N)=O)[C@@H](C)O)C(C)C)NC(=O)[C@H](Cc2c[nH]cn2)NC(=O)[C@@H]2CCCN2C(=O)[C@H](Cc2ccc(O)cc2)NC1=O [P12-3A] (H-QSLPWCYPHCVT-NH2; disulfide 6-10 (inferred))", "remaining activity at 500 µM", 17.1),
]

remaining activity at 500 µM recorded for this compound, CC[C@H](C)[C@@H]1NC(=O)[C@H](CO)NC(=O)[C@H](Cc2c[nH]c3ccccc23)NC(=O)[C@H](Cc2c[nH]c3ccccc23)NC(=O)[C@H](CO)NC(=O)[C@@H](NC(=O)[C@H](C)N)CSSC[C@@H](C(=O)NCC(=O)NCC(=O)NCC(=O)O)NC(=O)[C@H](CC(C)C)NC(=O)[C@H](Cc2c[nH]cn2)NC1=O [C7C-1B] (H-ACSWWSIHLCGGG-OH; disulfide 2-10 (inferred)) , is 56.8

---

system: IDE (Homo sapiens, UniProt P14735)
Construct: made in house; host or cells: bacteria
protocol_summary: Vulnerability of peptides to degradation by IDE: 0 vs 4 h pre-incubation, then FRET1 assay
Assay type: biochemical
conditions: 0-hr incubation; Cheng-Prusoff from IC50, FRET1 KM 10 uM, substrate 5 uM
Ends that are not written are not given here.
measurement_type: pKi
To interpret pKi, take it as minus log10 of a concentration measured in moles per litre.

pKi recorded for this substance, Ac-FRQWWQPS [P12-1C] , is 3.86

---

system: IDE (Homo sapiens)
Construct: made in house; host or cells: bacteria
protocol_summary: Vulnerability of peptides to degradation by IDE: 0 vs 4 h pre-incubation, then FRET1 assay
Type: biochemical
conditions: FRET1 assay; 0-hr incubation (immediately after combining enzyme and peptide); individual runs; read-out: IC50s
Method: IDE activity was quantified by monitoring the degradation of Mca-[…](Dnp) (FRET1, 5 μM), fluoresceinated and biotinylated amyloid ß-protein (FAßB; 500 nM) or recombinant human insulin (50 nM) in PBS supplemented with 0.05% BSA. […] For quantitation of insulin degradation in primary murine skin fibroblasts, cells (1 x 10^5/well) were plated in 96-well plates and maintained in DMEM supplemented with 10% fetal bovine serum (FBS), 2mM glutamine, penicillin and streptomycin. […]
pIC50: −log10 of the molar value. Ends that are not written are not given here.
measurement_type: pIC50

I = VHWDFRQWWQPS-NH2 [P12-1A]
II = QSLPWCYP-NH2 [P12-3B]
[Q] Field: lower pIC50 | Options: I / II Could you answer with the label of the item you picked?
[A] II
(II: 3.92, I: 5.07)

---

protocol_summary: Solubility in assay medium and cell culture medium
Format: physicochemical
conditions: assay medium (PBS/0.05%BSA); cosmetic-grade P12-3A; read-out: soluble up to
Bridge positions count the residues as written; N and C are the ends. Peptide text beside a SMILES is read from it.
measurement_type: solubility

solubility recorded for this compound, CC(C)C[C@H](NC(=O)[C@H](CO)NC(=O)[C@@H](N)CCC(N)=O)C(=O)N1CCC[C@H]1C(=O)N[C@@H](Cc1c[nH]c2ccccc12)C(=O)N[C@H]1CSSC[C@@H](C(=O)N[C@H](C(=O)N[C@H](C(N)=O)[C@@H](C)O)C(C)C)NC(=O)[C@H](Cc2c[nH]cn2)NC(=O)[C@@H]2CCCN2C(=O)[C@H](Cc2ccc(O)cc2)NC1=O [P12-3A] (H-QSLPWCYPHCVT-NH2; disulfide 6-10 (inferred)) , is ~500 µM
